Assembled from different publications: IC50 for Estrogen receptor (Homo sapiens).
quantity measured: IC50 (nM)

// worked examples, IC50 included
[[record]]
compound = "Oc1ccc(C2=Nc3ccc(O)cc3OC2)cc1"
quantity_measured = "IC50"
numeric_result = 16000

[[record]]
compound = "O=C(CCl)Nc1ccc(-c2sc3cc(O)ccc3c2Oc2ccc(OCCN3CCCCC3)cc2)cc1"
quantity_measured = "IC50"
numeric_result = 666

[[record]]
compound = "COc1ccc(S(=O)(=O)Nc2ccc3cc[nH]c3c2)cc1"
quantity_measured = "IC50"
numeric_result = 7.53

[[record]]
compound = "Oc1ccc(-c2ccc3c(F)c(O)ccc3c2)cc1"
quantity_measured = "IC50"
numeric_result = 77

[[record]]
compound = "CCC12CCC(=O)C(C)=C1c1ccc3[nH]ncc3c1C2=O (racemic)"
quantity_measured = "IC50"
numeric_result = 624


a: CN(CCCc1ccc(F)cc1)c1nc(NCCc2ccc(O)cc2)nc(N2CCNCC2)n1
b: N#Cc1cc(-c2c(F)cc(O)cc2F)cc2ccc(O)cc12
Problem: Between the entries labelled a and b , which has a larger IC50 value on record? Bench note: the answer is the label of the chosen record.
Result: a
(a: 240 nM, b: 45 nM)

###

Biological target: Estrogen receptor (Homo sapiens)
Sequence (P03372 whole entry): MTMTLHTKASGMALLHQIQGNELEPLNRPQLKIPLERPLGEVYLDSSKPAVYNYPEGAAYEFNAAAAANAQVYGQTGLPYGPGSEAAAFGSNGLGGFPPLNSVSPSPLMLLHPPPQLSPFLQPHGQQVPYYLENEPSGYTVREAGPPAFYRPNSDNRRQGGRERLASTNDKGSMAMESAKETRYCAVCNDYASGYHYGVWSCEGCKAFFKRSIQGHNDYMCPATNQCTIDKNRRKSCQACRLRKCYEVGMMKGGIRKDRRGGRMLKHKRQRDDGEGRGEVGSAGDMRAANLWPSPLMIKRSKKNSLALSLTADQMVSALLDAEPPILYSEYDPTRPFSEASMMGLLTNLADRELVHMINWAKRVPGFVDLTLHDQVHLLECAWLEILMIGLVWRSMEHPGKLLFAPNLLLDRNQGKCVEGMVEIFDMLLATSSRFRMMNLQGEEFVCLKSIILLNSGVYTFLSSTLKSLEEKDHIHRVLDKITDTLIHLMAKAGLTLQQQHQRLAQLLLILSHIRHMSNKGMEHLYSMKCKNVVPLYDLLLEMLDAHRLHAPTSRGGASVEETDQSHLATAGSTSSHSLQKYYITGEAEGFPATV
From various publications: IC50 for Estrogen receptor (Homo sapiens).
quantity measured: IC50 (µM)

[[record]]
molecule = "Cc1c(O)cc(C)c2c1oc(=O)c1c(C)c(O)ccc12"
measure_unit = "µM"
numeric_result = 0.785

[[record]]
molecule = "Cc1ccc(S(=O)(=O)Nc2ccc3cc[nH]c3c2)cc1"
measure_unit = "µM"
numeric_result = 0.205

[[record]]
molecule = "CCCC[C@@]12CCC(=O)C(C(F)(F)F)=C1c1ccc3[nH]ncc3c1C2=O"
measure_unit = "µM"
numeric_result = 0.04

[[record]]
molecule = "Cc1c(O)c(Cl)c(C)c2c1c(=O)oc1c(Cl)c(O)ccc12"
measure_unit = "µM"
numeric_result = 0.597

[[record]]
molecule = "Oc1ccc2c(c1)C=C(c1ccccc1)C21Cc2ccccc2C1"
measure_unit = "µM"
numeric_result = 0.024


I: Cc1c(O)ccc2c1oc(=O)c1cc(O)cc(C)c12
II: CC/C(=C(\c1ccc(O)cc1)c1cccc(OCCN2CCCCC2)c1)c1ccccc1
Problem: Quick check, higher IC50 between I and II ? Respond using the label that marks the chosen record.
Result: I
(I: 0.583 µM, II: 0.021 µM)

P: COC(=O)c1cc(O)cc2ncn(-c3ccc(O)cc3)c(=O)c12
Q: CC[C@@H]1CC[C@@H]2C[C@]13Cc1cc(O)ccc1C3=C(C)C2=O
Problem: Out of P and Q , name the one with the higher IC50. # reply format: chosen label
Result: P
